Assay: BSK_hDFCGF_SRB: Viability Assessment in the BioMAP Diversity Plus: hDFCGF Assay (AID 2283061);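 also: cells exposed to compound for 24 h before the read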
Details: primary human foreskin fibroblasts
Active and inactive are the calls of the source. The calls were made as follows: active = hit-call score of the fitted dose curve at least 0.9, where 1 is the maximum; inactive = score below 0.9.
Returns: one label drawn from active, inactive

Check out these entries, answers already filled in.
CSc1nnc(C(C)(C)C)c(=O)n1N: inactive
CCOP(=S)(OCC)SCCSCC: inactive
CCOP(=S)(Oc1cnc(C(C)(C)C)nc1)OC(C)C (centres undefined): active
CC(C)N(C(=O)SCC(Cl)=C(Cl)Cl)C(C)C: active
CCOC(=O)CC(SP(=O)(OC)OC)C(=O)OCC (centres undefined): inactive
CCC(=NOC/C=C/Cl)C1=C(O)CC(C2CCOCC2)CC1=O (centres undefined): inactive

// param item: CN(C)NC(=O)CCC(=O)O ; yields the recorded call
inactive

// param item: C[N+]1(C)CCCCC1 ; yields the recorded call
inactive

// param item: CCOP(=S)(OCC)OC(Cl)C(Cl)(Cl)Cl (centres undefined) ; yields the recorded call
inactive

// param item: CCOP(=O)(SC(C)CC)N1CCSC1=O (centres undefined) ; yields the recorded call
inactive

// param item: COc1cccc(C(=O)NN(C(=O)c2cc(C)cc(C)c2)C(C)(C)C)c1C ; yields the recorded call
inactive

// param item: COP(=O)(OC)C(O)C(Cl)(Cl)Cl (centres undefined) ; yields the recorded call
inactive

// param item: CCOP(=O)(NC(C)C)Oc1ccc(SC)c(C)c1 (centres undefined) ; yields the recorded call
inactive

// param item: CNC(=O)ON=C(C)SC ; yields the recorded call
inactive
